The values you see were collected from PubChem BioAssay AID1159580.

- ASSAY NOTES: chemical genetic growth profiling, strain panel (AID 1159580);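 further: tested at 20 µM; growth read once vehicle control cultures reached saturation at 30 °C; 1 = growth at the plate median or of vehicle wells; lower values mean less growth of the strain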
- RUN CONDITIONS: S. cerevisiae deletion strains, growth OD, locus YOR083W, strain WHI5, stronger effect = lower value
Hit rate of the full screen: of about 5,500 compounds, about 2,000 (36%) were called active. Another 18% or so got no clear call; they are omitted. The list shows a part of the results.
METRIC: normalized growth
# respond with the number and nothing more

Task: Which normalized growth reading was recorded for the compound CCC(N)C(O)c1ccc(O)c(O)c1 (configuration not stated) ?
Output: 1.01

Task: For "COc1cccc2c(C)cc(=O)[nH]c12" , what is its reported normalized growth?
Output: 0.929

Task: I am curious: what normalized growth value has been reported for "C[C@@H]([C@H](O)c1ccccc1)N(C)C" ?
Output: 1.02

Task: Item CNC(C)C(O)c1ccccc1 (configuration not stated) has what recorded normalized growth?
Output: 1.02

Task: Would you kindly share the measured normalized growth for C[C@]12CCC3c4ccc(OS(=O)(=O)O)cc4CCC3C1CC[C@H]2O (some centres not stated) ?
Output: 0.901

Task: Consider the compound "Cc1[nH]ccc2c1[nH]c1cc(=O)ccc12" and give its measured normalized growth.
Output: 0.993

Task: Would you mind telling me what normalized growth value was observed for "CC/C(=C(/CC)c1ccc(O)cc1)c1ccc(O)cc1" ?
Output: 0.948

----------
- ASSAY NOTES: chemical genetic growth profiling, strain panel (AID 1159580);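 further: tested at 20 µM; growth read once vehicle control cultures reached saturation at 30 °C; 1 = growth at the plate median or of vehicle wells; lower values mean less growth of the strain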
- RUN CONDITIONS: S. cerevisiae deletion strains, growth OD, locus YKR001C, strain vps1
Among all 5,500 compounds or so, about 2,000 (36%) were called active. Inconclusive results (about 18%) are left out. Rule as the data show it: active = normalized growth mostly below about 0.91 (no sharp cut-off); inconclusive = no clear call, values can overlap the other calls; inactive = mostly above about 0.92. The list shows a part of the results.
Select the matching outcome among Yes = active, No = inactive

Task: How was "COc1ccccc1/C=C\C(=O)O" classified in this test?
Output: No

Task: Look up the recorded call for "CN1C[C@H](C(=O)N[C@]2(C)O[C@@]3(O)[C@@H]4CCCN4C(=O)[C@H](Cc4ccccc4)N3C2=O)C[C@@H]2c3cccc4[nH]cc(c34)C[C@H]21" in this test.
Output: No

Task: Please indicate how the test categorized CCC(c1ccc(O)cc1)C(CC)c1ccc(O)cc1 (stereo not drawn) .
Output: No

Task: Fill in: this test's call for CC1CCC2(OC1)OC1CC3C4CC[C@H]5C[C@@H](O)CC[C@]5(C)C4CC(=O)[C@]3(C)C1C2C (stereo partly drawn) is ___
Output: No

Task: Recorded call for C[C@@H]1CC[C@@]2(OC1)OC1CC3C4CC=C5C[C@@H](O)CC[C@]5(C)C4CC[C@]3(C)C1[C@@H]2C (stereo partly drawn) ?
Output: No

Task: Could you please tell me the result logged for CCC(N)C(O)c1ccc(O)c(O)c1 (stereo not drawn) in this assay?
Output: No

Task: I'd appreciate the recorded outcome for CC1(C)C(=O)C=C[C@@]2(C)C1C[C@@H](O)[C@]1(C)C2CC[C@@]2(C)[C@H](c3ccoc3)OC(=O)[C@H]3O[C@]321 (stereo partly drawn) from this test.
Output: No

Task: How was C[C@@H]1CC[C@@]2(OC1)O[C@H]1CC3C4CC[C@H]5C[C@@H](O)CC[C@]5(C)C4CC[C@]3(C)[C@H]1[C@@H]2C (stereo partly drawn) classified in this test?
Output: No

Task: For this molecule, state the assay outcome: "CN(C)c1nc(N)c(C(=O)N=C(N)N)nc1Cl"
Output: No

Task: Would you mind telling me which call this test gave "CCC/C=C1\OC(=O)C2=C1CCC=C2" ?
Output: No

Task: Please indicate how the test categorized CC12CCC3c4ccc(OC(=O)c5ccccc5)cc4CCC3C1CCC2O (stereo not drawn) .
Output: No

Task: Tell me the recorded outcome of this test for "O=C(O)C1=C[C@@H](O)[C@@H](O)[C@H](O)C1" .
Output: No

Task: Please share the test call associated with "CC1(C)O[C@H]2CC(=O)OC[C@]23[C@H]2CC[C@@]4(C)[C@H](c5ccoc5)OC(=O)[C@H]5O[C@]54[C@]2(C)C(=O)C[C@@H]13" .
Output: No

Task: Per the records of this test, what outcome belongs to COC(=O)C[C@H]1C(C)(C)C2(Cl)O[C@@]34CC2C(=O)[C@]1(C)C3CC[C@]1(C)C4=CC(=O)O[C@H]1c1ccoc1 (stereo partly drawn) ?
Output: No

Task: Returns: the outcome recorded for C[C@@H]1CC[C@@]2(NC1)O[C@H]1C[C@H]3C4CC=C5C[C@@H](O)CC[C@]5(C)C4CC[C@]3(C)C1[C@@H]2C (stereo partly drawn) in this assay.
Output: Yes

Task: Called result for C[C@]12CCC3c4ccc(O)cc4CCC3C1CC[C@@H]2O (stereo partly drawn)
Output: No

Task: Tell me the assay call for CC1(C)C2CC(=O)[C@]3(C)C(CC[C@@]4(C)[C@H](c5ccoc5)OC(=O)C5OC543)[C@@]2(C)[C@@H](O)C[C@H]1O (stereo partly drawn) please.
Output: No

Task: Could you check what this test reported for Cc1ccccc1OCC(O)CO (stereo not drawn) ?
Output: No
